Would you mind telling me the reported EC50 of each entry?
# assay.system: Short transient receptor potential channel 4 (Mus musculus)
# Sequence (Q9QUQ5 whole entry): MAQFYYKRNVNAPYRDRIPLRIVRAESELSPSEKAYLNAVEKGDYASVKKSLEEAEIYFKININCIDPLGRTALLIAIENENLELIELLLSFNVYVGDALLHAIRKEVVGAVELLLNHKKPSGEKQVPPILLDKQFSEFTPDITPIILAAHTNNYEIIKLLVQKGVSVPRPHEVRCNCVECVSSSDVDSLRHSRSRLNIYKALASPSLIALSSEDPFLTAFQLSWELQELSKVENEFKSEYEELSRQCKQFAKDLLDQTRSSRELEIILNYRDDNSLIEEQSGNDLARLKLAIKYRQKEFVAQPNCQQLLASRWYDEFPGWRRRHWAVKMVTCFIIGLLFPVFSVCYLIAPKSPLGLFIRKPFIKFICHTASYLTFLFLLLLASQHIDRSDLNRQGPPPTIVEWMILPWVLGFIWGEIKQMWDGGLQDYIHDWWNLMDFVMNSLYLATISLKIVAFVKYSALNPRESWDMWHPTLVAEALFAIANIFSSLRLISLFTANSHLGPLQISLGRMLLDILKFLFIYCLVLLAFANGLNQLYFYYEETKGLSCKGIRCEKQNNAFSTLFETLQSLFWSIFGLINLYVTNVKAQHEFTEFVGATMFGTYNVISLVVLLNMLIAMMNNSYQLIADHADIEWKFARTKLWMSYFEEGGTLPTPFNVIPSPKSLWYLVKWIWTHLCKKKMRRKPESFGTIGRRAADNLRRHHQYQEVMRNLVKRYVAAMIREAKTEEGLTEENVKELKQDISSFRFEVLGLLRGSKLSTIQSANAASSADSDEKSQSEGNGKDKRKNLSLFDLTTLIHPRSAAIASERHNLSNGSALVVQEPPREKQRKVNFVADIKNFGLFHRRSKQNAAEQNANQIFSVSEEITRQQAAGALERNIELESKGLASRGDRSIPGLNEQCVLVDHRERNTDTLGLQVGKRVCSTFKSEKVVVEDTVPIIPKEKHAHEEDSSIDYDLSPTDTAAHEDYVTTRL
# assay.protocol: calcium entry via TRPC4 opening agents – cell-based, HEK293 TRPC4/mu-opioid, Fluo-4 calcium, dose response (AID 434937)
# Format: functional
The source made the active and inactive calls.

# input I would be grateful if you could share the reported EC50 for CC(NCCC1(Cc2ccccc2Cl)CCOC(C)(C)C1)c1cccs1 (configuration not stated) .
# output 5.31 µM (active)

# input Next entry: CN(C)C(CNC(=O)/C=C/c1cccc(Cl)c1)c1ccccc1 (configuration not stated)
# output 0.133 µM (active)

# input Next entry: CCCCN(CC)CCCNC(=O)c1csc2c1CCCCC2
# output 1.19 µM (active)

# input Next entry: COCCn1nnnc1C(c1cc2ccc(OC)cc2nc1O)N1CCN(C2CCCCC2)CC1 (configuration not stated)
# output 3.76 µM (active)

# input Next entry: Cc1ccc(C(=O)NNC(=S)NC(=O)c2ccccc2)cc1
# output 2.66 µM (active)

# input Next entry: O=C(c1sc2ccccc2c1Cl)N(Cc1ccco1)C1CCS(=O)(=O)C1 (configuration not stated)
# output 2.11 µM (active)

# input Next entry: CCOc1cc(CNCCc2c[nH]c3ccccc23)cc(Cl)c1OC
# output 3.35 µM (active)

# input Next entry: Cc1csc2c(N3CCN(C(=O)Nc4ccccc4)CC3)ncnc12
# output 1.68 µM (active)

# input Next entry: COc1ccc(C(CNc2ncnc3sc(C)c(C)c23)N(C)C)cc1 (configuration not stated)
# output 0.473 µM (active)

# input Next entry: Cc1ccc(NC(=S)NC2CC3CCC(C2)N3Cc2ccco2)c(C)c1 (configuration not stated)
# output 5.96 µM (active)

# input Next entry: COc1ccc(C(CNC(=O)Cc2ccc3ccccc3c2)N(C)C)cc1 (configuration not stated)
# output 0.668 µM (active)

# input Next entry: COc1cccc(C(=O)OC2CCCN(C)C2)c1 (configuration not stated)
# output 0.376 µM (active)

###

# assay.system: Disintegrin and metalloproteinase domain-containing protein 17 (Homo sapiens)
# assay.protocol: exosite inhibitors of ADAM17, dose response, biochemical (AID 743260)
Active and inactive are the calls of the source.
Would you mind telling me the reported IC50 of each entry?

# input I would be grateful if you could share the reported IC50 for CCOc1ccc(-n2c(SCC(=O)Nc3cc(C)c(NC(=O)c4ccccc4)cc3OC)nnc2-c2cccs2)cc1 .
# output > 69.5 µM (inactive)

# input Next entry: COc1cc(/C=C(\C#N)c2ccccn2)ccc1OCc1ccccc1
# output > 69.5 µM (inactive)

# input Next entry: O=[N+]([O-])CC(c1ccccc1)P(=O)(c1ccccc1)c1ccccc1 (stereo unspecified)
# output 10.9 µM (inactive)

# input Next entry: O=C(OCc1cnc(Cl)s1)c1cccc(Cl)c1Cl
# output > 69.6 µM (inactive)

# input Next entry: OC(c1ccc(F)c(F)c1)c1nc(-c2cccc(C(F)(F)F)c2)cs1 (stereo unspecified)
# output 50.5 µM (inactive)

# input Next entry: Nc1[nH]c(C(=O)c2ccc(Br)cc2)c(-c2ccccn2)c1C(=O)NCCc1c[nH]c2ccccc12
# output > 69.5 µM (inactive)

###

# assay.system: Cytochrome P450 3A4 (Homo sapiens);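 further: confirmatory qHTS run detecting inhibitors and substrates of CYP3A4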
# Sequence (P08684 whole entry): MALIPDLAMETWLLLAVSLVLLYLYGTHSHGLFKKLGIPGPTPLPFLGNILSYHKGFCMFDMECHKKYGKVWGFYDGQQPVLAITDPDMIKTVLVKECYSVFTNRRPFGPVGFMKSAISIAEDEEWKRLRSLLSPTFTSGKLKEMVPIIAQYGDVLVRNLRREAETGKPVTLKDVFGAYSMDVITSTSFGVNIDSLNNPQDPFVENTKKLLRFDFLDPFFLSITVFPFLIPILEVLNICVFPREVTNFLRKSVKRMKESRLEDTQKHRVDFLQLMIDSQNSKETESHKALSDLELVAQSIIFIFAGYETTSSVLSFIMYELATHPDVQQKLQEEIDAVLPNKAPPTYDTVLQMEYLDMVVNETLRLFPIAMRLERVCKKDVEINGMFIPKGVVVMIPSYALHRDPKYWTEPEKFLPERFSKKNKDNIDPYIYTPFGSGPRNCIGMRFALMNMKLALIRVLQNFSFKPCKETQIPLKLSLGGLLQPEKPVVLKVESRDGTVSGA
# measurement.context: Potency
outcome.measure: AC50

# input I would be grateful if you could share the reported AC50 for COc1ccc(-c2ccccc2C2NC(C(=O)O)CCC2C)cc1 (centres undefined) .
# output 5.01 µM (inconclusive)

# input Next entry: Cc1nc(NC2CCCCC2)c2nc(-c3ccccc3)n(CCCN(C)C)c2n1
# output 20 µM (inconclusive)

# input Next entry: COc1cc2c(Cc3c4c5c(cc(OC)c(OC)c5c5c(OC)c(OC)ccc35)CCN4C)c3c4c(cc(OC)c(OC)c4c2cc1OC)CCN3C
# output 3.16 µM (inconclusive)

# input Next entry: COC(=O)CC1[C@@]2(C)C[C@]34OC5(C)OC6(C7CC(=O)OC(c8ccoc8)[C@]7(C)CCC6(O5)[C@]13C)C(OC(C)=O)[C@]4(OC(C)=O)C2OC(C)=O (some centres undefined)
# output 20 µM (inconclusive)

# input Next entry: O=C1C=C2C=CC3C[C@@]2(O1)C1CCCCN31 (some centres undefined)
# output 31.6 µM (inconclusive)

# input Next entry: CC(C)CN1CCc2nc(-c3ccccc3)c3c(c2C1)COC(C)C3 (centres undefined)
# output 3.16 µM (inconclusive)

# input Next entry: O=Nc1ccc(Nc2ccccc2)cc1
# output 20 µM (inconclusive)

# input Next entry: c1ccc(-c2ccc(CN3C[C@@H]4C(c5ccccc5)C5(c6cccnc6)CC4(C5)[C@H]3c3ccccc3)cc2)cc1 (some centres undefined)
# output 15.8 µM (inconclusive)

# input Next entry: CCOc1cc(OCC)c(C(C)=O)cc1OCC
# output 15.8 µM (inconclusive)

###

# assay.system: Glycogen synthase kinase-3 beta (Homo sapiens);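 further: value comes from a broad kinome profiling panel, with GSK3B as the panel member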
# Sequence (P49841 whole entry): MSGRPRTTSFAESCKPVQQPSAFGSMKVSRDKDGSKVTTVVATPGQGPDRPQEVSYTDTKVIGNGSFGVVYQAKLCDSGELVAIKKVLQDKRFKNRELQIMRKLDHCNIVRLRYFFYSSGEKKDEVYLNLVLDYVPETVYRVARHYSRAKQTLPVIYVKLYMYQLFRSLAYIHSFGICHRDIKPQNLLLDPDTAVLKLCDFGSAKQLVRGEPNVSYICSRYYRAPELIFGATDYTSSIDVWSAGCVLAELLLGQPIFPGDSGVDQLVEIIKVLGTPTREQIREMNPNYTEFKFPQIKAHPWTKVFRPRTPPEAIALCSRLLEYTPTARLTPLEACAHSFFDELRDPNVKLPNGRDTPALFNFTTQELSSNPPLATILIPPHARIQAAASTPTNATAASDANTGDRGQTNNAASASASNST
# Type: functional
Active and inactive are the calls of the source.
outcome.measure: Ki

# input I would be grateful if you could share the reported Ki for CCCCOc1cc(-c2ccncc2)cc2[nH]nc(N)c12 .
# output 631 nM (active)

# input Next entry: O=C1Cc2cc(-c3ccccc3)cnc2N1
# output 15800 nM (active)

# input Next entry: Fc1cccc(-c2c[nH]c3ncccc23)c1
# output 2000 nM (active)

# input Next entry: O=C1Nc2ccccc2Nc2cc(-c3ccncc3Cl)ccc21
# output 251 nM (active)

# input Next entry: CCOC(=O)c1c[nH]n2c(=O)cc(-c3ccncc3)nc12
# output 316 nM (active)

# input Next entry: NC(COc1cncc(-c2ccc3c(c2)C(=Cc2ccc[nH]2)C(=O)N3)c1)Cc1ccccc1 (stereo not drawn)
# output 2.51 nM (active)

# input Next entry: C=CCNc1cc(-c2c[nH]c3ncccc23)cc(Cl)n1
# output 100 nM (active)

# input Next entry: O=C1Nc2cc(-c3ccc(O)cc3)ccc2C1=Cc1ccc[nH]1
# output 501 nM (active)

###

# Test system: P388/ADR
# assay.protocol: cells
# Format: functional
# measurement.context: Mus musculus
The source made the active and inactive calls.
The reply should name one outcome from active, inactive

# input Would you mind telling me which call this test gave CC1=C2C(=CO[C@H](C)[C@H]2C)C(O)=C(C(=O)O)C1=O ?
# output inactive

# input Next entry: O=C(NCCCCCCNC(=O)n1cc(F)c(=O)[nH]c1=O)NCCCOCCOCCCNC(=O)C(O)C(O)C(O)C(O)CO (configuration not stated)
# output active

# input Next entry: CCN(CC)c1ccc2cc(C(=O)Nc3ccc4[nH]c(C(=O)N5C[C@@H](CCl)c6c5cc(OC(=O)Nc5ccccc5)c5[nH]cc(C)c65)cc4c3)oc2c1
# output inactive

# input Next entry: O=[N+]([O-])c1cc2ncc(-c3ccccc3)c(O)c2cc1/C(Cl)=C/c1ccccc1
# output inactive

# input Next entry: COc1cc2ccc(=O)oc2cc1O
# output inactive

# input Next entry: NC(=O)NN=C(CS)CS
# output inactive

# input Next entry: O=C(O)CCCc1ccc(N(CCCl)CCCl)cc1
# output inactive

###

# assay.system: Oxysterols receptor LXR-beta (Homo sapiens, UniProt P55055);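 further: Cell-based luminescence dose-response assay of agonist activity at LXR, run as a confirmatory counterscreen to a daf-12 agonist screen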;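 further: HEK293 cells with Gal4-LXR fusion and GAL4-driven luciferase reporter; agonist potency from rising luciferase signal of a Gal4-LXR reporter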
# Sequence (P55055 whole entry, the tested form may be a part): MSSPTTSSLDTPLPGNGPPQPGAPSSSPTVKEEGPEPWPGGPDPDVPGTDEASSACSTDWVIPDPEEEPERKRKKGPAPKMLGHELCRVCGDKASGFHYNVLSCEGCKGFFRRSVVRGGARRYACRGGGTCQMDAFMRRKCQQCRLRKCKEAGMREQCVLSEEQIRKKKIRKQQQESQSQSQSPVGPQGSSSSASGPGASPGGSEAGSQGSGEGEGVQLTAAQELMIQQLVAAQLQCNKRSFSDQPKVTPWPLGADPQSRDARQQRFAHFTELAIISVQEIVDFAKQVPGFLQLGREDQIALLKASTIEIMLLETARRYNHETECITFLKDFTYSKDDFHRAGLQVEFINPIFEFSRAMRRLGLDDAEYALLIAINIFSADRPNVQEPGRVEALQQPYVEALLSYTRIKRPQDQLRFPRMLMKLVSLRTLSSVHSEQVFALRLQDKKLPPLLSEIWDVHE
# Format: functional, cell-based
Calls of active or inactive are those of the source.
Would you mind telling me the reported EC50 of each entry?

# input I would be grateful if you could share the reported EC50 for c1ccc(-c2ccc(-c3ccccn3)s2)nc1 .
# output > 67.5 µM (inactive)

# input Next entry: COc1ccc(-c2cc3ccccc3c(=O)o2)cc1
# output > 67.5 µM (inactive)

# input Next entry: Clc1cccc(-c2nc(-c3ccccn3)no2)c1
# output > 67.5 µM (inactive)

# input Next entry: Oc1cccc(/C=N/Nc2cccc3cccnc23)c1
# output > 67.5 µM (inactive)

# input Next entry: O=C(/C=C\Nc1cccc(F)c1)c1cccs1
# output > 67.5 µM (inactive)

###

# assay.system: Peroxisome proliferator-activated receptor gamma/Nuclear receptor coactivator 2 (Homo sapiens)
# Sequence (P37231 whole entry): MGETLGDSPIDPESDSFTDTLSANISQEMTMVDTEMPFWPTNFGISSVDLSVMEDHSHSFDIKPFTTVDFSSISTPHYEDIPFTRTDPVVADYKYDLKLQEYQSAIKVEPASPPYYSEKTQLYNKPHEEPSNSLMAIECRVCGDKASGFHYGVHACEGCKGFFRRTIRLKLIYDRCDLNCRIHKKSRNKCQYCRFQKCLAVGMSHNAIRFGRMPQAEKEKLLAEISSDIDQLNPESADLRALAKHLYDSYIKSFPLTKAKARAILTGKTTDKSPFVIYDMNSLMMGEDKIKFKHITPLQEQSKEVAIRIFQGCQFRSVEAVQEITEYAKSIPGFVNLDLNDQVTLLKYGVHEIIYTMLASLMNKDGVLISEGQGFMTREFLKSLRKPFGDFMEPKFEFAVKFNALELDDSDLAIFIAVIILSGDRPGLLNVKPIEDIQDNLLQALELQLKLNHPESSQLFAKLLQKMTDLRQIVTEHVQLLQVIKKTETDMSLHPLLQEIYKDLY
# Sequence (Q15596 whole entry, further chain): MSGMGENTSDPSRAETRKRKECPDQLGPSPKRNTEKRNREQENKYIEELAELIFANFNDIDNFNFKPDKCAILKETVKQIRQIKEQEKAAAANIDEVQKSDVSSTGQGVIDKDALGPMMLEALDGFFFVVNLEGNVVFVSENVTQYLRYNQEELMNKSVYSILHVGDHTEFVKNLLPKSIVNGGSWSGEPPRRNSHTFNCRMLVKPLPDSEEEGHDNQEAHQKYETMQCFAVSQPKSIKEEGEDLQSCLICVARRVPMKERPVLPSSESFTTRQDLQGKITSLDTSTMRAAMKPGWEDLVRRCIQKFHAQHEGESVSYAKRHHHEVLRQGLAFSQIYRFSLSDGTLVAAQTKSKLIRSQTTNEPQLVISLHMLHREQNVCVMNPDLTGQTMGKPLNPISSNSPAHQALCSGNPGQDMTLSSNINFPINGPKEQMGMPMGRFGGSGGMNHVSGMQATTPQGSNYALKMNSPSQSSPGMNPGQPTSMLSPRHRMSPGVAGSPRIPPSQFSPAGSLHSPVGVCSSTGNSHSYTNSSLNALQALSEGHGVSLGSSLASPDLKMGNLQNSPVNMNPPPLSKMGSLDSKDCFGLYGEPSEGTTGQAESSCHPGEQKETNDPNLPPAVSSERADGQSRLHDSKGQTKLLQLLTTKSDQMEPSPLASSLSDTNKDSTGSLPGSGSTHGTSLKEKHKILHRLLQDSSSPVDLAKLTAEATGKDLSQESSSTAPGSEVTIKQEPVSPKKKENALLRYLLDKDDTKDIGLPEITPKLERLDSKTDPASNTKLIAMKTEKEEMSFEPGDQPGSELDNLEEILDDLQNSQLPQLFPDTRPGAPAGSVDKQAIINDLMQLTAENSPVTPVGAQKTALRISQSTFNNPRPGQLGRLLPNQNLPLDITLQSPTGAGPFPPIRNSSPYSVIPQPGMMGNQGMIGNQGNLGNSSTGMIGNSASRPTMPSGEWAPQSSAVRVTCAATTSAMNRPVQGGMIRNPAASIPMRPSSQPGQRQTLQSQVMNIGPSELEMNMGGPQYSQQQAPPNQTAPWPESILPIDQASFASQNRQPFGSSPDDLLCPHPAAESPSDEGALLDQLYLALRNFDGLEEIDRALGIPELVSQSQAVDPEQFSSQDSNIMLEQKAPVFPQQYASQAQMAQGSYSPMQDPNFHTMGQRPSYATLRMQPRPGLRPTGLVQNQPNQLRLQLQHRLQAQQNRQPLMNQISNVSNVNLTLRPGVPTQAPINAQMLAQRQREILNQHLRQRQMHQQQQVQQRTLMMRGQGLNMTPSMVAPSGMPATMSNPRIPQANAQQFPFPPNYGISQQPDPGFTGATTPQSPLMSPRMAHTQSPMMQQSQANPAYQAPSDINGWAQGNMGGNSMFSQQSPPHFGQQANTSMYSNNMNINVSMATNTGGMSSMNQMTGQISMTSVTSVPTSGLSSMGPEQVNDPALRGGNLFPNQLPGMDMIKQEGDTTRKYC
# assay.protocol: TR-FRET dose response biochemical High Throughput Screening assay for agonists of the steroid receptor coactivator 2 (SRC-2) recruitment by the peroxisome proliferator-activated receptor gamma (PPAR gamma): non-selective agonists. [Related pubchem assays: 1297, 1032 ]
# Format: functional
Active and inactive are the calls of the source.
outcome.measure: EC50

# input I would be grateful if you could share the reported EC50 for Cc1ccc2nc(NC(=S)NC(=O)c3ccco3)sc2c1 .
# output 51.8 µM (not active)

# input Next entry: O=C(CNS(=O)(=O)c1ccc2ccccc2c1)OCC(=O)c1ccc(Br)s1
# output 4.58 µM (active)

# input Next entry: c1ccc(Cc2nnc(Sc3ccccc3)c3ccccc23)cc1
# output 2.35 µM (active)

# input Next entry: O=C(CSc1c2c(nc3cc(Cl)ccc13)CCCC2)NCc1ccco1
# output > 79.4 µM (not active)

# input Next entry: COc1ccc(C(=O)C2=C(O)C(=O)N(c3nc(C)c(C)s3)C2c2ccco2)cc1 (stereo not drawn)
# output 37.9 µM (not active)

# input Next entry: CC(=O)C1=C(O)C(=O)N(c2nccs2)C1c1ccccc1 (stereo not drawn)
# output 35.4 µM (not active)

# input Next entry: COc1ccc2cc(C#N)c(SCC(=O)NNC(=O)Cc3ccccc3)nc2c1
# output 11.1 µM (not active)

# input Next entry: CCn1c(=O)cc(SCC(=O)NCc2ccc(C)cc2)c2ccccc21
# output > 26.5 µM (not active)

Sourced from ChEMBL document CHEMBL1201862
